Biological target: AM2 receptor (1321N1 cells transfected with CALCRL+RAMP3) (Homo sapiens, UniProt O60896+Q16602)
Construct: host or cells: 1321N1 cells
Sequence (Q16602 23-461): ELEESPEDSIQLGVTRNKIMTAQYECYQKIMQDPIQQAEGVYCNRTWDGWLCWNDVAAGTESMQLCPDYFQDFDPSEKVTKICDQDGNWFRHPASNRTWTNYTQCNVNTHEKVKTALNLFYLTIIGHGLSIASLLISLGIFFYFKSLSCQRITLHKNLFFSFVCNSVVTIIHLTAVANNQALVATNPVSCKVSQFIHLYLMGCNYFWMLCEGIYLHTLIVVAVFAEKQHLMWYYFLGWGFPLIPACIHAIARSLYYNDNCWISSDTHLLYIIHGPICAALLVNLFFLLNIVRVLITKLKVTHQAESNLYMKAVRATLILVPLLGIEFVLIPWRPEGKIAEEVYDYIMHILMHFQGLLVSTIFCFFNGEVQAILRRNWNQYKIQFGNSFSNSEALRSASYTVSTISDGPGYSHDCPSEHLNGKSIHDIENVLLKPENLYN
Sequence (O60896 24-148): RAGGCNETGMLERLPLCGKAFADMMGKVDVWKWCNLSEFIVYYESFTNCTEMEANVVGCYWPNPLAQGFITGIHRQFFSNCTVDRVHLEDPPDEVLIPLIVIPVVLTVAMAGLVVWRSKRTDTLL
Assay: AM2 receptor inhibition, LANCE cAMP agonist-antagonist competition assay
Assay type: cell-based
Details: inhibition of AM induced cAMP activation, read-out: AM2 D2 protocol: pIC50 (converted)
// NB: equality with 4 nM counts as f; only IC50 strictly below is t

For orientation, consider the following solved cases.
Could you please tell me whether IC50 recorded for CCC1(C(=O)N(CC(=O)Nc2ccc3c(c2)C[C@@]2(C3)C(=O)Nc3ncccc32)Cc2ccccc2CNC)CCN(C(=O)[C@@H]2COCCN2)CC1 [Example 93] is less than 4 nM?
f

What would you report for CNCc1ccccc1CN(CC(=O)Nc1ccc2c(c1)C[C@@]1(C2)C(=O)Nc2ncccc21)C(=O)C1(C)CCN(C(=O)CN)CC1 [Example 28] ?
t

Then this compound: CNCc1ccccc1CN(CC(=O)Nc1ccc2c(c1)C[C@@]1(C2)C(=O)Nc2ncccc21)C(=O)C1(CC2CC2)CCN(C(C)=O)CC1 [Example 122]
f

Now this one: CCC1(C(=O)N(CC(=O)Nc2ccc3c(c2)C[C@@]2(C3)C(=O)Nc3ncccc32)Cc2ccccc2CNC)CCN(C(=O)NCC(F)(F)F)CC1 [Example 113]
f

Then what about the compound CNCc1ccccc1CN(CC(=O)Nc1ccc2c(c1)C[C@@]1(C2)C(=O)Nc2ncccc21)C(=O)C1(C)CCN(c2ccccn2)CC1 [Example 62] ?
f

Turning to the following compound.
Item CNCc1ccccc1CN(CC(=O)Nc1ccc2c(c1)C[C@@]1(C2)C(=O)Nc2ncccc21)C(=O)C1(C)CCN(C(=O)c2ccccc2C(=O)O)CC1 [Example 34] : IC50 beneath 4 nM, strictly?
f
